Quick reference: IC50 of the listed items.
target.of.assay: human ENT1 (Homo sapiens, UniProt Q99808)
Construct: JAR cells expressing ENT1 were purchased from ATCC; host or cells: JAR cells
Sequence (Q99808 whole entry): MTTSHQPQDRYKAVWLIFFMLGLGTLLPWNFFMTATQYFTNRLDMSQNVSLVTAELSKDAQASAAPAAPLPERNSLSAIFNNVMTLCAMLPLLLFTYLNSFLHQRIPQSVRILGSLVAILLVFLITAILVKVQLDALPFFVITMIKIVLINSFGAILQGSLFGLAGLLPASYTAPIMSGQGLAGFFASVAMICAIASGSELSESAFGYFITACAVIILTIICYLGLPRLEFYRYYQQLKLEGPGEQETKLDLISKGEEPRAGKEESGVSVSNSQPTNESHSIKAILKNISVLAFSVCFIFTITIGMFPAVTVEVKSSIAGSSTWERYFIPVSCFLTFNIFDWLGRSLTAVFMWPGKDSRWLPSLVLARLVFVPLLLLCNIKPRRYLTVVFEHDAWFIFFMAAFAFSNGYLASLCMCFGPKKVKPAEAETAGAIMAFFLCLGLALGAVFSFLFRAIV
assay.overview: ENT1 binding assay (competition with Sahenta-DY647 on JAR cells)
stated.conditions: Binding Assay IC50, competition with SAHENTA-DY647 binding; IC50 categorized

Lab entry: human ENT1 (Homo sapiens, UniProt Q99808) assay, compound C[C@H]1O[C@@H](n2cnc3c(COc4ccc(C#N)cc4)ncnc32)[C@H](O)[C@@H]1O [Compound 280] , IC50 = > 500 nM

Case C[C@H]1O[C@@H](n2cnc3c(SCc4ccccc4)ncnc32)[C@H](O)[C@@H]1O [Compound 224] , human ENT1 (Homo sapiens, UniProt Q99808), IC50 recorded as > 500 nM
